Below, each entry is listed with its recorded human LM [% Qh].
RUN DESCRIPTION: Assay B: Microsomal clearance
Assay type: in vitro ADME, human
RECORDED CONDITIONS: pooled liver microsomes, 37° C., 1 mg/ml protein, test compound 1 μM, NADPH
Protocol: Assay B: Microsomal Clearance: The metabolic degradation of the test compound is assayed at 37° C. with pooled liver microsomes. […] An aliquot of the supernatant is assayed by LC-MS/MS for the amount of parent compound. The half-life (t½ INVITRO) is determined by the slope of the semilogarithmic plot of the concentration-time profile. The intrinsic clearance (CL_[…]) is calculated by considering the amount of protein in the incubation: CL _[…] […]

Consider the following illustrative entries.
Cn1cnc2cnn(Cc3nc(C[C@H](O)c4ccc(Cl)cc4)no3)c(=O)c21 | <23 % Qh
Cn1cnc2cnn(Cc3nc(C[C@H](O)c4cc5ccccc5s4)no3)c(=O)c21 | 31 % Qh
Cn1cnc2cnn(Cc3nc(C[C@H](O)c4cc5cc(Cl)ccc5o4)no3)c(=O)c21 | 30 % Qh
Cn1c(=O)n(C)c2c(=O)n(Cc3nc(C[C@H](O)c4cc5cc(F)ccc5o4)no3)ncc21 | <23 % Qh
Cc1ccc([C@@H](O)Cc2noc(Cn3ncc4c(c3=O)n(C)c(=O)n4C)n2)cc1 | <23 % Qh

Bench note: what human LM [% Qh] did `Cn1c(=O)n(C)c2c(=O)n(Cc3nc(C[C@H](O)c4cc5ccccc5o4)no3)ncc21` show?
<23 % Qh

Bench note: what human LM [% Qh] did `Cn1c(=O)n(C)c2c(=O)n(Cc3nc(C[C@H](O)c4cc5ccc(F)cc5s4)no3)ncc21` show?
36 % Qh

Bench note: what human LM [% Qh] did `Cn1c(=O)n(C)c2c(=O)n(Cc3nc(C[C@H](O)c4ccc(Cl)cc4)no3)ncc21` show?
<23 % Qh

* * *

ASSAY SYSTEM: human TRPA1 ion channel (Homo sapiens, UniProt O75762)
Sequence (O75762 whole entry): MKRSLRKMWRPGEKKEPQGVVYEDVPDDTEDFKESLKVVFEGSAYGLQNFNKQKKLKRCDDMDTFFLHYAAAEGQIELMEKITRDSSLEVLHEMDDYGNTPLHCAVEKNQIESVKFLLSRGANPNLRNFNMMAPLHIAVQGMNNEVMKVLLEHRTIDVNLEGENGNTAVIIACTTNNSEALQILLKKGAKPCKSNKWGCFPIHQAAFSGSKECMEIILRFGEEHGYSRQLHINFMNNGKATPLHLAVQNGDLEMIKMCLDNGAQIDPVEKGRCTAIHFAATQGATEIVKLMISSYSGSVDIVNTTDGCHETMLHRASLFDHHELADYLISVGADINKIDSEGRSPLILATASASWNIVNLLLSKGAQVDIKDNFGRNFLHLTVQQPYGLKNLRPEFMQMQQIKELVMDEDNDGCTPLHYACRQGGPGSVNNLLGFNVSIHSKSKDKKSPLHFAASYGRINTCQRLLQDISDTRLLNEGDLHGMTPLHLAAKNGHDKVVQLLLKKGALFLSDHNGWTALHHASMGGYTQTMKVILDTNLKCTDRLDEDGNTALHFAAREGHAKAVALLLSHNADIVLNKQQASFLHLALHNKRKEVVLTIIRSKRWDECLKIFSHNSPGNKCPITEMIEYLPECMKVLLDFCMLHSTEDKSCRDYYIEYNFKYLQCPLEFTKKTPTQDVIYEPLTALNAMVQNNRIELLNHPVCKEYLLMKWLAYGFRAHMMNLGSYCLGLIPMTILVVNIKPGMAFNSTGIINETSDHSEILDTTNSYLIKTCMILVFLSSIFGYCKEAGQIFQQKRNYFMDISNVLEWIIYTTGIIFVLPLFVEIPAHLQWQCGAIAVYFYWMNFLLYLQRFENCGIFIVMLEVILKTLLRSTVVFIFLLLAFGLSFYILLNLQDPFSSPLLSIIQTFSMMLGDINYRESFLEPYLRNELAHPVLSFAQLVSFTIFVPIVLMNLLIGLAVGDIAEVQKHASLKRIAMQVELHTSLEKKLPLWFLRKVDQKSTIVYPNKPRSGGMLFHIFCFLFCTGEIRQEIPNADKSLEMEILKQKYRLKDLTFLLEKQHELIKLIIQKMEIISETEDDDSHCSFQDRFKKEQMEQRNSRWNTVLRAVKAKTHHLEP
RUN DESCRIPTION: Assay A: TRPA1 assay (in vitro TRPA1 cell assay, FLIPR calcium)
RECORDED CONDITIONS: read-out: hTRPA1 IC50
Below, each entry is listed with its recorded pIC50.
Quick note: pIC50 means taking -log10 of the concentration in moles per liter.

Cn1c(=O)n(C)c2c(=O)n(Cc3nc(C[C@H](O)c4cc5cc(Cl)ccc5o4)no3)ncc21 | 7.33
Cc1ccc([C@@H](O)Cc2noc(Cn3ncc4ncn(C)c4c3=O)n2)cc1 | 7.02
Cn1cnc2cnn(Cc3nc(C[C@H](O)c4cc5ccc(F)cc5s4)no3)c(=O)c21 | 8.05
Cc1ccc([C@@H](O)Cc2noc(Cn3ncc4c(c3=O)n(C)c(=O)n4C)n2)cc1 | 7.33
Cn1c(=O)n(C)c2c(=O)n(Cc3nc(C[C@H](O)c4cc5ccc(F)cc5s4)no3)ncc21 | 8.05
Cn1c(=O)n(C)c2c(=O)n(Cc3nc(C[C@H](O)c4cc5cc(F)ccc5o4)no3)ncc21 | 7.10
Cn1c(=O)n(C)c2c(=O)n(Cc3nc(C[C@H](O)c4ccc(F)cc4)no3)ncc21 | 6.83

# context switch: different compound, same pIC50
Bench note: what pIC50 did `Cn1c(=O)n(C)c2c(=O)n(Cc3nc(C[C@H](O)c4cc5ccccc5o4)no3)ncc21` show?
6.80

* * *

ASSAY SYSTEM: human TRPA1 ion channel (Homo sapiens, UniProt O75762)
RUN DESCRIPTION: Assay A: TRPA1 assay (in vitro TRPA1 cell assay, FLIPR calcium)
RECORDED CONDITIONS: read-out: hTRPA1 IC50
Label key: T means IC50 under 0.02 µM; F means IC50 of 0.02 µM or more.

Example entries begin here.
Cn1cnc2cnn(Cc3nc(C[C@H](O)c4ccc(Cl)cc4)no3)c(=O)c21 | F
Cn1cnc2cnn(Cc3nc(C[C@H](O)c4ccc(Br)cc4)no3)c(=O)c21 | F
Cn1cnc2cnn(Cc3nc(C[C@H](O)c4ccc5c(c4)OCO5)no3)c(=O)c21 | F
Cn1cnc2cnn(Cc3nc(C[C@H](O)c4cc5cc(Cl)ccc5o4)no3)c(=O)c21 | T
Cn1c(=O)n(C)c2c(=O)n(Cc3nc(C[C@H](O)c4ccc(Cl)cc4)no3)ncc21 | F

Hi there! Is IC50 for `Cn1cnc2cnn(Cc3nc(C[C@H](O)c4cc5ccccc5s4)no3)c(=O)c21` below 0.02 µM, do you know?
F

Hi there! Is IC50 for `Cn1cnc2cnn(Cc3nc(C[C@H](O)c4cc5cc(F)ccc5o4)no3)c(=O)c21` below 0.02 µM, do you know?
T

Hi there! Is IC50 for `Cn1c(=O)n(C)c2c(=O)n(Cc3nc(C[C@H](O)c4cc5ccccc5s4)no3)ncc21` below 0.02 µM, do you know?
T

* * *

Test system: human hepatocytes
RUN DESCRIPTION: Assay C: Hepatocyte clearance
Format: in vitro ADME
RECORDED CONDITIONS: hepatocyte suspension, 5% species serum, test compound 1 μM, six hours
READOUT KIND: human Hepatocytes [% Qh] (% Qh)
# number only, unit % Qh dropped from output

Consider the following illustrative entries.
Cn1cnc2cnn(Cc3nc(C[C@H](O)c4cc5cc(Cl)ccc5o4)no3)c(=O)c21 | 35
Cn1c(=O)n(C)c2c(=O)n(Cc3nc(C[C@H](O)c4ccc(F)cc4)no3)ncc21 | 13
Cn1cnc2cnn(Cc3nc(C[C@H](O)c4cc5cc(F)ccc5o4)no3)c(=O)c21 | 29

# context switch: different molecule, same human Hepatocytes [% Qh]
Provide the documented human Hepatocytes [% Qh] with human hepatocytes as the system for `Cn1cnc2cnn(Cc3nc(C[C@H](O)c4cc5ccc(F)cc5s4)no3)c(=O)c21`
43

* * *

Test system: human hepatocytes
RUN DESCRIPTION: Assay C: Hepatocyte clearance
Format: in vitro ADME
RECORDED CONDITIONS: hepatocyte suspension, 5% species serum, test compound 1 μM, six hours
READOUT KIND: human Hepatocytes [% Qh] (% Qh)
# number only, unit % Qh dropped from output

Cn1c(=O)n(C)c2c(=O)n(Cc3nc(C[C@H](O)c4cc5ccccc5o4)no3)ncc21 | 9

Bench note: what human Hepatocytes [% Qh] did `Cn1cnc2cnn(Cc3nc(C[C@H](O)c4ccc5c(c4)OCO5)no3)c(=O)c21` show?
9

Bench note: what human Hepatocytes [% Qh] did `Cn1c(=O)n(C)c2c(=O)n(Cc3nc(C[C@H](O)c4cc5cc(F)ccc5o4)no3)ncc21` show?
14

Bench note: what human Hepatocytes [% Qh] did `Cc1ccc([C@@H](O)Cc2noc(Cn3ncc4c(c3=O)n(C)c(=O)n4C)n2)cc1` show?
14

Bench note: what human Hepatocytes [% Qh] did `Cn1c(=O)n(C)c2c(=O)n(Cc3nc(C[C@H](O)c4cc5cc(Cl)ccc5o4)no3)ncc21` show?
12

Bench note: what human Hepatocytes [% Qh] did `Cn1c(=O)n(C)c2c(=O)n(Cc3nc(C[C@H](O)c4ccc(Cl)cc4)no3)ncc21` show?
10

Bench note: what human Hepatocytes [% Qh] did `Cc1ccc([C@@H](O)Cc2noc(Cn3ncc4ncn(C)c4c3=O)n2)cc1` show?
9

Bench note: what human Hepatocytes [% Qh] did `Cn1cnc2cnn(Cc3nc(C[C@H](O)c4ccc(Br)cc4)no3)c(=O)c21` show?
39

Bench note: what human Hepatocytes [% Qh] did `Cn1cnc2cnn(Cc3nc(C[C@H](O)c4ccc(Cl)cc4)no3)c(=O)c21` show?
23

Bench note: what human Hepatocytes [% Qh] did `Cn1c(=O)n(C)c2c(=O)n(Cc3nc(C[C@H](O)c4cc5ccccc5s4)no3)ncc21` show?
43

Bench note: what human Hepatocytes [% Qh] did `Cn1cnc2cnn(Cc3nc(C[C@H](O)c4cc5ccccc5s4)no3)c(=O)c21` show?
42
